tested on: SF-268 CNS; experiment: NCI-60 one-dose screen, 48 h (100 = growth as untreated, 0 = no growth, -100 = all killed); details: 10 µM unless noted
About 83,000 compounds went through this panel and 20% of them were active in at least one assay; those are over-represented in the sample as a whole.
List of growth values.
Provide the reading as a plain figure in %.

CHEMICAL_SMILES	growth / %
CCOC(=O)c1cnn2c3ccccc3n(S(=O)(=O)c3ccc(OC)cc3)c12	44.7

Look up growth for this compound: NCCCNc1nc2ccc(Cl)cc2c2c(=O)c3cc(F)ccc3sc12
53.2

Please look up its growth: N/C(=N\c1nc2ccccc2s1)NC(=O)Nc1cccc2ccccc12
56.4

Returns the measured growth for the input compound. Input: CCCCC[C@H](O)C/C=C1/C(=O)C=C[C@@H]1C/C=C\CCCC(=O)OC
34.9

What measured growth goes with O=C1c2cccc3cccc(c23)C(=O)N1Nc1nc(NC2CCCCC2)nc(N2CCOCC2)n1 ?
99.7

====

test system: NCI-H226 lung; assay: NCI-60 one-dose screen, 48 h (100 = growth as untreated, 0 = no growth, -100 = all killed); details: 10 µM unless noted
About 83,000 compounds went through this panel and 20% of them were active in at least one assay; those are over-represented in the sample as a whole.
MEASURED_ENDPOINT: growth (%)
Give just the number in %; leave the unit off.

Below are worked cases with known answers.
MOLECULE	READING_UNIT	growth
CCOC(=O)C1=C(N)Oc2c(sc3c(C)cccc23)C1c1ccc(Cl)cc1 (stereo unspecified)	%	32.9
O=[N+]([O-])c1ccc(Cl)c(-c2cc(CCCCO)on2)c1	%	93.5
COc1cc(C(=O)c2cc(C)c3[nH]c4ccc(C)cc4c3c2C)cc(OC)c1OC	%	54.4
CCCCC1CCCC12NC(=O)NC2=O (stereo unspecified)	%	88.5
COc1ccc(-c2nc(NCCO)[nH]c(=O)c2C#N)cc1	%	99.9

Next item in the queue.
// query growth value for entry O=c1c2cc(F)ccc2sc2c(NCCO)nc3ccccc3c12
103

====

tested on: RPMI-8226 leukemia; experiment: NCI-60 one-dose screen, 48 h; details: 10 µM unless noted
The panel holds about 83,000 compounds, 20% with a hit somewhere; the sample as a whole holds those more often. Activity calls are given as the source filed them. Rule for the calls: active = growth percent below 10; inactive = the rest.
Field 'call' accepts active, inactive

COMPOUND	DISCRETE_LABEL
CN(C)CC#Cc1ccc2ncc(C#N)c(Nc3ccc(F)c(Cl)c3)c2c1	inactive
N#C/C(=C\c1cccc2cnccc12)n1nnc2cccc(F)c21	active
CC(=O)O.CN1[CH-]N(Cc2ccc(C#N)cc2)c2ccccc21.[Ag+]	inactive
COc1cccc(Oc2ccccc2NC(=O)CNC(=O)c2cccc3ccccc23)c1	inactive
O=C(CCc1nnc(-c2c(Cl)cccc2Cl)o1)c1nc2ccccc2[nH]1	inactive
Nc1nc(Cl)cc(=O)n1Cc1ccccc1	inactive

Dear all, I need the recorded test outcome for O=C(/C=C/c1ccc([N+](=O)[O-])o1)NNC(=O)c1cc2ccccc2cc1O , thank you.
active

For this compound, state the assay outcome: Cc1nn(-c2ccccc2)c2c1N=c1s/c(=C\c3ccc(C(F)(F)F)cc3)c(=O)n1CN2
inactive

Lab log entry: C#C[C@]1(O)CC[C@H]2[C@@H]3CC=C4c5sc(Nc6ccccc6)nc5CC[C@]4(C)[C@H]3CC[C@@]21C — outcome as called in the assay?
active

I'd appreciate the recorded outcome for N#Cc1c(Nc2cccc(Cl)c2)sc(C(=O)c2cc3cc(Cl)ccc3o2)c1N from this test.
inactive

Each compound tested received a call. Report the one for O=C(/C=C/c1sc(Cl)nc1Cl)c1ccc(F)cc1 .
active

Can you look up the reported call for c1ccc(-c2nc3nonc3nc2-c2ccccc2)cc1 for me?
inactive

====

tested on: TK-10 renal; assay: NCI-60 one-dose screen, 48 h; settings: 10 µM unless noted
This is part of a sample that, as a whole, favours compounds with a hit. Of some 83,000 tested, about 20% had one in any assay. The source made the active and inactive calls. Rule for the calls: active = growth percent below 10; inactive = the rest.
Outcome field: choose from active, inactive

For orientation, consider the following solved cases.
COMPOUND	DISCRETE_LABEL
O=C1NC(=O)C(Cn2cnc3ccccc32)N1 (stereo unspecified)	inactive
OC(COc1ccccc1)CN1CCN(c2ccc(Cl)cc2)CC1 (stereo unspecified)	inactive
CCCCn1c(-c2ccc(-c3nc(-c4ccc(Cl)cc4)no3)cc2)nc(-c2ccccc2)c1-c1ccccc1	inactive
O=C(/C=C/c1sc(Cl)nc1Cl)c1ccccc1	inactive

Query: recorded result category for CCN1C(=O)N(CC)C2Nn3c(s/c(=C4\C(=O)N(CCC(C)C)c5ccccc54)c3=O)=NC21 (stereo unspecified) in this test
inactive

Query: recorded result category for CCN(CC)CCNC(=O)c1cn2ncnc(Oc3ccc(NC(=O)Nc4ccc(Cl)c(C(F)(F)F)c4)cc3)c2c1C in this test
active

Which outcome did this test record for the compound COc1cccc(-c2nn(-c3ccccc3)cc2-c2ccnc(N3CCOCC3)c2)c1 ?
inactive

Look up the recorded call for COc1cc2cc(Oc3ccc(NC(=O)Nc4ccc(Cl)c(Cl)c4)cc3)c(C)nc2cc1OCCN1CCOCC1 in this test.
inactive

Query: recorded result category for Cc1ccc(-c2nc(N3CCN(C(=O)Nc4ccc(Cl)c(C(F)(F)F)c4)CC3)c3ccccc3n2)cc1 in this test
inactive

Record lookup: outcome of this test for O=c1c2cc(F)ccc2sc2c(N3CCNCC3)nc3ccc(F)cc3c12 ?
inactive

Could you check what this test reported for Oc1ccc(Cl)cc1Cc1cc(Cl)cc(Cl)c1O ?
inactive

Assay outcome for CCCCCCNC(=O)Oc1ccc(/C(=C(\C)c2ccc(Cl)cc2)c2ccc(OCCCN(C)C)cc2)cc1 : what was it?
inactive

For COc1c(B(O)O)cc(F)cc1-c1nc2ccc3[nH]ncc3c2c2c1CCCC2 , what call appears in the results of this test?
inactive

Would you mind telling me which call this test gave CCOC(=O)c1cn2ncnc(Oc3ccc(NC(=O)NCCN4CCOCC4)c(Cl)c3)c2c1C ?
inactive

====

tested on: HT29 colon; experiment: NCI-60 one-dose screen, 48 h (100 = growth as untreated, 0 = no growth, -100 = all killed); settings: 10 µM unless noted
The panel holds about 83,000 compounds, 20% with a hit somewhere; the sample as a whole holds those more often.
Rule: True for growth not less than 10%, False for anything less.

Answered cases to consult:
COMPOUND	STUDY_SYSTEM	DISCRETE_LABEL
COc1ccc(/C=C(\C#N)n2nnc3c(F)cccc32)cc1	HT29 colon	True
CC1=C([Se]CC(OC(=O)[C@@H](CSSC(C)(C)C)NC(=O)OC(C)(C)C)C(=O)NC(C)(C)C)C(=O)c2ccccc2C1=O (stereo not given in full)	HT29 colon	False
CC(C)C(=O)Nc1ccc(-c2nc(-c3cccc(OCCN4CCOCC4)c3)c(-c3ccnc(Br)c3)[nH]2)cc1	HT29 colon	True

Could you tell me if the measured growth of COc1cccc(/C=C2\C=C(c3ccccc3)N(Cc3ccccc3)C2=O)c1 reaches 10% or more?
True

Identify whether the reported growth of the following compound is 10% or greater: O=C(CSc1nc2ccccc2[nH]1)Nc1cccc(Cl)c1
True

====

System: HCT-15 colon
Assay: NCI-60 one-dose screen, 48 h (100 = growth as untreated, 0 = no growth, -100 = all killed)
Conditions: 10 µM unless noted
Procedure: Growth inhibition of the HCT-15 human tumor cell line is measured as a screen for anti-cancer activity. Cells are grown in 96 well plates and exposed to the test compound for 48 hours. Compounds are tested at a single concentration, which is 10^-5 M for most compounds. The reported endpoint is percent growth (GI% or GIPRCNT), where numbers from 0 - 100% represent growth inhibition, and numbers from -100% - 0 represent cell death. For example, a value of 40 represents 60% growth inhibition. […]
Compounds without any hit were thinned out: in the full panel of roughly 83,000, 20% have a hit.
MEASURED_ENDPOINT: growth (%)
I only need the number, in %, no unit after it.

Completed entries (count: 4):
MOLECULE	growth [%]
O=S(=O)(NCCCNc1cc(-c2c(-c3cccc(O)c3)nc3sccn23)ccn1)c1cccc2ccccc12	24.4
O=c1c2cc(F)ccc2sc2c(NCCCNCCO)nc3ccc(F)cc3c12	47.9
COc1ccc2c(c1OC)C(=O)O[C@H]2[C@H]1c2c(cc3c(c2OC)OCO3)CCN1C	95.6
CCOC(=O)CCN(C(=O)Nc1ccccc1)C1CCCCC1	119

# evaluate next
So what does the record say about growth for NC1=C(c2nn[nH]n2)C(c2ccccc2Cl)c2ccc3ccccc3c2O1 (stereo not given) ?
46.8

====

tested on: UACC-257 melanoma; test: NCI-60 one-dose screen, 48 h (100 = growth as untreated, 0 = no growth, -100 = all killed); details: 10 µM unless noted
The panel holds about 83,000 compounds, 20% with a hit somewhere; the sample as a whole holds those more often.
MEASURED_ENDPOINT: growth (%)
Supply the numeric figure in %, leaving out any unit text.

COMPOUND	STUDY_SYSTEM	MEASURED_ENDPOINT	REPORTED_MEASUREMENT
O=c1cc(SCc2ccccc2)nc[nH]1	UACC-257 melanoma	growth	108
O=C1c2cccc3cccc(c23)C(=O)N1Nc1nc(NC2CCCCC2)nc(N2CCOCC2)n1	UACC-257 melanoma	growth	100
CCN1C(=O)N(CC)C2Nn3c(s/c(=C\c4ccc([N+](=O)[O-])cc4)c3=O)=NC21 (stereo unspecified)	UACC-257 melanoma	growth	43.4

Which growth value is on record for Cc1cc(=O)oc2cc(OC(=O)CN3CCN(C)CC3)ccc12 ?
109

Which growth is reported for this compound? CCCCNC(=O)Oc1ccc(/C(=C(\C)c2ccc(Cl)cc2)c2ccc(OCCN3CCCCC3)cc2)cc1
35.5

Dear colleague, I am looking for the recorded growth of the following compound: CCCCN(C)N=Nc1ccc(C(N)=O)cc1
105
